meta.source: patent US7737127B2

Molecular target: A3 AR (Homo sapiens)
Sequence (P0DMS8 1-318): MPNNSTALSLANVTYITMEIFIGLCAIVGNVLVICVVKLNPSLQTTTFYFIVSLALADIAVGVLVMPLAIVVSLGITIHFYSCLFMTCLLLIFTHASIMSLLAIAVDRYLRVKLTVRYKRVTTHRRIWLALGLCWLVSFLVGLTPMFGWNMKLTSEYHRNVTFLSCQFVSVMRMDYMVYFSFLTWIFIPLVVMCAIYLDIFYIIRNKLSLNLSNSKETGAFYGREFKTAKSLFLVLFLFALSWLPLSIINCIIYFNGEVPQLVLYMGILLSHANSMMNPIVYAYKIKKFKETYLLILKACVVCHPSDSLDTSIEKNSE
Test: Radioligand competition binding (125I-ABA) to human A3 AR in HEK 293 cell membranes
Conditions: A3 ± SEM, Ki from competition binding, 125I-ABA, HEK 293 cell membranes
readout kind: Ki (µM)

A = CCNC(=O)[C@H]1O[C@@H](n2cnc3c(N)nc(C#CCC4CCC(C(C)=O)CC4)nc32)C(O)C1O (stereo in doubt) [JR-3119]
B = CCNC(=O)[C@H]1O[C@@H](n2cnc3c(N)nc(C#CCC4CCC(C(=O)OCCNC(=O)OC(C)(C)C)CC4)nc32)C(O)C1O (stereo in doubt) [JR-3021]
Hi! Which is lower in terms of Ki, the first one A or the second one B ? Identify your pick by its label.
A

I = CCNC(=O)[C@H]1O[C@@H](n2cnc3c(N)nc(C#CCN4CCN(c5ncccn5)CC4)nc32)C(O)C1O (stereo in doubt) [JR-3283]
II = CCNC(=O)[C@H]1O[C@@H](n2cnc3c(N)nc(C#CC4(O)CCCCNC4=O)nc32)C(O)C1O (single isomer, unassigned) [JR-3243B]
Given I and given II , which shows the smaller recorded Ki? Write the label of whichever entry you select.
II

----------
Biological target: recombinant human A2A receptors (Homo sapiens)
Sequence (P29274 whole entry): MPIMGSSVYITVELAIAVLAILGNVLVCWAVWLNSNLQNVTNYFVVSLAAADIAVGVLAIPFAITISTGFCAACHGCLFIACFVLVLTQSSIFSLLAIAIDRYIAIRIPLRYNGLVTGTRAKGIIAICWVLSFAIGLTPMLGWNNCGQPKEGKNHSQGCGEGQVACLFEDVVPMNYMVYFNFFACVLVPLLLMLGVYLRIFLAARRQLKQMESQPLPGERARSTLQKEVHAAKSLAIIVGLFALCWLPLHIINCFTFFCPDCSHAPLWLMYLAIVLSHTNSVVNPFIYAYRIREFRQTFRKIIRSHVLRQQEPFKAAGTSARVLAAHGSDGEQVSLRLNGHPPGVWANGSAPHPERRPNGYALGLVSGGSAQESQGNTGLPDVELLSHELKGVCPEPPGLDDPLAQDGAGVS
Assay: Radioligand competition binding to recombinant human A2A receptors in Sf9 cell membranes
Conditions: A2A ± SEM, Ki from competition binding, Sf9 cell membranes
readout kind: Ki (nM)

Ki for CCNC(=O)[C@H]1O[C@@H](n2cnc3c(N)nc(C#C[C@]4(O)CCC[C@@H](C)C4)nc32)C(O)C1O (stereo in doubt) ?
0.92

Could you tell me which Ki is on file for CCNC(=O)[C@H]1O[C@@H](n2cnc3c(N)nc(C#CC4(O)CCCCNC4=O)nc32)C(O)C1O (single isomer, unassigned) [JR-3243A] ?
11.9

Value lookup for Ki; key = CCNC(=O)[C@H]1O[C@@H](n2cnc3c(N)nc(C#CC4(O)CCCCC4C)nc32)C(O)C1O (single isomer, unassigned) [JR-3181B]
0.7

Which measured Ki value corresponds to CCNC(=O)[C@H]1O[C@@H](n2cnc3c(N)nc(C#CCN4CCN(c5ncccn5)CC4)nc32)C(O)C1O (stereo in doubt) ?
2

Entry under review: CCNC(=O)[C@H]1O[C@@H](n2cnc3c(N)nc(C#C[C@@]4(O)CCC[C@@H](C)C4)nc32)C(O)C1O (stereo partly shown) . Reported Ki?
5.08

I = CCNC(=O)[C@H]1O[C@@H](n2cnc3c(N)nc(C#CCC4CCN(C(=O)OC(C)C)CC4)nc32)C(O)C1O (stereo in doubt)
II = CCNC(=O)[C@H]1O[C@@H](n2cnc3c(N)nc(C#CCN4CCCCC4C(=O)OC)nc32)C(O)C1O (stereo partly shown)
Compare the recorded Ki of I and II ; state which is larger. Please reply using the label of the selected record.
II
